Assay: Particle size distribution by dynamic light scattering (Malvern Mastersizer 2000)
Assay type: physicochemical
Conditions: dynamic light scattering
readout_name: particle size D(0.95) (microns)

>>> recorded_number("CCC(=O)O[C@]1(C(=O)SCF)[C@H](C)C[C@H]2[C@@H]3C[C@H](F)C4=CC(=O)C=C[C@]4(C)[C@@]3(F)[C@@H](O)C[C@@]21C [Example 15, fluticasone propionate]")
7.51
>>> recorded_number("CCC(=O)O[C@]1(C(=O)SCF)[C@H](C)C[C@H]2[C@@H]3C[C@H](F)C4=CC(=O)C=C[C@]4(C)[C@@]3(F)[C@@H](O)C[C@@]21C [Example 13, fluticasone propionate]")
4.96
>>> recorded_number("CCC(=O)O[C@]1(C(=O)SCF)[C@H](C)C[C@H]2[C@@H]3C[C@H](F)C4=CC(=O)C=C[C@]4(C)[C@@]3(F)[C@@H](O)C[C@@]21C [Example 16, fluticasone propionate]")
9.86
>>> recorded_number("CCC(=O)O[C@]1(C(=O)SCF)[C@H](C)C[C@H]2[C@@H]3C[C@H](F)C4=CC(=O)C=C[C@]4(C)[C@@]3(F)[C@@H](O)C[C@@]21C [Example 14, fluticasone propionate]")
5.27
